tested on: SK-OV-3 ovarian; test: NCI tumour cell line growth inhibition, 48 h
Item-by-item account of TGI

# example entries with known answers
1. O=C1NN(c2ccccc2)C(=O)/C1=C/c1ccc(Br)o1; > 61.4 µM
2. C=CCCCCCCCCCOC1C=CC(OC(C)=O)C(COC(C)=O)O1 (stereo not given); > 100 µM
3. COc1ccc(-c2cc(=O)c3c(OC)c(OC)c(OC)c(OC)c3o2)c(OC)c1; > 100 µM
4. Cc1nc(C(N)=S)sc1C(=O)C/C(=N/N)C(=O)Nc1ccc(Cl)cc1; > 100 µM
5. CCN(CC)CCCOc1cc2c(cc1OC)C(=O)N1CCC[C@H]1C=N2; > 100 µM
6. CC(NC(=O)C(N)CC(=O)O)NC(=O)N(C)C(C)(C)C (stereo not given); > 100 µM

Field: next molecule
Using the record for CC(C)C1CC[C@H](C)C[C@@H]1OC(=O)C(C(=O)O[C@H]1C[C@@H](C)CCC1C(C)C)C(O)[C@@H]1OC(C)(C)O[C@H]1C1COC(C)(C)O1 (stereo not given in full) , state its measured TGI.
65.4 µM
